Tested on: P. falciparum stage V gametocytes
Set-up: BacTiter-Glo ATP luminescence viability of purified stage V gametocytes in 384-well plates, per cent inhibition versus DMSO
Conditions: 48 h, 5 µM; inhibitor
In all, about 13,000 compounds went through this assay and about 3,200 (25%) showed an effect of 50% or more. Some of the results follow.
PROPERTY_LABEL: % Inhibition (%)
Lab book: enter the figure in %, no units written.

COMPOUND	PROPERTY_LABEL	UNIT_SYMBOL	REPORTED_VALUE
CC(C)COc1ccc(Cl)cc1Cc1nc(-c2nc3ccc(CN4CCN(C)CC4)cc3[nH]2)co1 [TCMDC-136812]	% Inhibition	%	12.89
CCC(C)Oc1ccc(CCCON2C(N)=NC(N)=NC2(C)C)cc1 (stereo not drawn) [TCMDC-131784]	% Inhibition	%	25.06
COc1ccccc1-c1csc(C(=O)NCC2CCN(Cc3ccc(C(C)C)cc3)C2)c1 (stereo not drawn) [TCMDC-134510]	% Inhibition	%	-33.71
COc1ccc2nccc([C@@H](O)CN3CCC(NCc4ccc5c(c4)oc(=S)n5C)CC3)c2c1 [TCMDC-141186]	% Inhibition	%	1.23
COc1cc(NC(=O)/C=C/c2cc(F)cc(F)c2F)cc(OCCN2CCC(O)(c3ccccc3)CC2)c1 [TCMDC-140936]	% Inhibition	%	-10.33

Inquiry: Given Nc1ncc(-c2ccc3[nH]ccc3c2)c2ccc(-c3ccncc3)cc12 [TCMDC-133396] , respond with its % Inhibition.
Reply text: 22.16

Inquiry: Given CC(C)c1ccc(CN2CCCCC(NC(=O)c3cc(-c4ccccc4F)cs3)C2)cc1 (stereo not drawn) [TCMDC-134462] , respond with its % Inhibition.
Reply text: -8.212

Inquiry: Given O=C(Nc1ccc(N2CCCCC2)c(Cl)c1)c1ccco1 [TCMDC-124392] , respond with its % Inhibition.
Reply text: 30.55

Inquiry: Given Nc1ncc(-c2ccc3nccc(-c4ccncc4)c3c2)cc1S(=O)(=O)N1CCCCC1 [TCMDC-134265] , respond with its % Inhibition.
Reply text: 97.23

Inquiry: Given CCCCCCCN1CC[C@@H](CCC(O)c2ccnc3ccc(OC)cc23)[C@@H](CC)C1 (stereo partly drawn) [TCMDC-138954] , respond with its % Inhibition.
Reply text: 9.095

Inquiry: Given CCCCCCCN1CC[C@@H](CCCc2ccnc3ccc(OCC4CCCNC4)cc23)[C@@H](CC)C1 (stereo partly drawn) [TCMDC-139816] , respond with its % Inhibition.
Reply text: 113

Inquiry: Given CCOC(=O)CCc1cc(F)c(F)c(OC[C@H](O)CNC(C)(C)C(O)c2ccc3ccccc3c2)c1 (stereo partly drawn) [TCMDC-141731] , respond with its % Inhibition.
Reply text: -25.49

Inquiry: Given CN(C)Cc1cccc2[nH]c(-c3csc(Cc4cc(Cl)ccc4OCc4ccccc4)n3)nc12 [TCMDC-132174] , respond with its % Inhibition.
Reply text: 97.26

Inquiry: Given CC(C)(C)c1ccc(CN2CCC(CNC(=O)c3cc(-c4ccccc4C(F)(F)F)cs3)C2)cc1 (stereo not drawn) [TCMDC-134441] , respond with its % Inhibition.
Reply text: 105.6

Inquiry: Given COC(=O)C(Cc1ccccc1)C(CSCc1ccc(OC)cc1)C(=O)N[C@@H](C(=O)OC(C)(C)C)c1ccc(C(C)(C)C)cc1 (stereo partly drawn) [TCMDC-131235] , respond with its % Inhibition.
Reply text: 8.806
